Values compiled from paper PMC12586182.

molecular target: CK2α1/β (Homo sapiens, UniProt P68400); construct: purchased Carna Biosciences; assay: Kinase panel profiling at 1 µmol/L (mobility shift assay, Carna); format: biochemical; details: 1 µmol/L of BTK inhibitor
Sequence (P68400 whole entry): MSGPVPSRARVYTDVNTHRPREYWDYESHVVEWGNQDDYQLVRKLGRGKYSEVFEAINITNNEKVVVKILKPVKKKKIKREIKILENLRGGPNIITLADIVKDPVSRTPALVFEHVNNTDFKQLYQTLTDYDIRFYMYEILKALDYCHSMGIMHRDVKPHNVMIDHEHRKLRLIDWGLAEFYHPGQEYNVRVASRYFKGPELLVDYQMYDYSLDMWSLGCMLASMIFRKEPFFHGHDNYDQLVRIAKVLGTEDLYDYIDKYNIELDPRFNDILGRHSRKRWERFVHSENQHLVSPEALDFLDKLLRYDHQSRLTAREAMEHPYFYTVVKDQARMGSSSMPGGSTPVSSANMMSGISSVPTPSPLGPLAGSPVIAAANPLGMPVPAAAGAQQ
Sequence (P67870 whole entry partner): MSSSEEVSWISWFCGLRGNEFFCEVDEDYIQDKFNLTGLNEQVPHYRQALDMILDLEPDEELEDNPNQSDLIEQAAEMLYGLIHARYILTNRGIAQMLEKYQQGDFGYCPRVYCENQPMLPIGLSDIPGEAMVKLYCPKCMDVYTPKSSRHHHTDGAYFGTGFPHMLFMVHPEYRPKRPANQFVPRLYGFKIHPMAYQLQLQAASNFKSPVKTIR
measured attribute: Percentage inhibition of kinase enzyme activity

• COc1ccc(F)cc1C(=O)NCc1ccc(-c2nn([C@@H](C)C(F)(F)F)c(N)c2C(N)=O)cc1 = -1.74%
• O=C(c1ccc(Oc2ccccc2)cc1Cl)c1c[nH]c2ncnc(N[C@@H]3CC[C@@H](CO)OC3)c12 = -2.75%
• CC#CC(=O)N1CCC[C@H]1c1nc(-c2ccc(C(=O)Nc3ccccn3)cc2)c2c(N)nccn12 = 5.34%
• C=CC(=O)N1CCC[C@@H](n2nc(-c3ccc(Oc4ccccc4)cc3)c3c(N)ncnc32)C1 = -11.11%
